biological target: HIV-1 JR-CSF Env N386A (HIV-1 isolate JR-CSF) (UniProt P20871); assay: cell-based or functional assay
Assign YES whenever Fold IC50 increase relative to wild-type does not fall below 0.9 fold; assign NO whenever it does.

As a guide, the following entries are already answered.
PGT-123 (antibody, V domains shown) VH: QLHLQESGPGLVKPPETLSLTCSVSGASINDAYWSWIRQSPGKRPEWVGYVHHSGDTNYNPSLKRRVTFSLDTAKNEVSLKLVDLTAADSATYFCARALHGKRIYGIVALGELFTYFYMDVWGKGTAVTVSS VL: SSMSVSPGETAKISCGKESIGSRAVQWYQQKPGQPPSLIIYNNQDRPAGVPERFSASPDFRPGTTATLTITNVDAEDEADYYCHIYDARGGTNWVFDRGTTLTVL = YES
PGT-135 (antibody, V domains shown) VH: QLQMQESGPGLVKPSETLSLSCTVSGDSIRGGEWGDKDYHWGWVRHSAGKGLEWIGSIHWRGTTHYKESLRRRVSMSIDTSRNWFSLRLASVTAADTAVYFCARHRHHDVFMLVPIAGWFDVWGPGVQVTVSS VL: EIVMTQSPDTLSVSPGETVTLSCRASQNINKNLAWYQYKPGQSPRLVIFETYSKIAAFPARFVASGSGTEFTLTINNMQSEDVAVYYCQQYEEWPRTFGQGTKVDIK = NO
PGT-130 (antibody, V domains shown) VH: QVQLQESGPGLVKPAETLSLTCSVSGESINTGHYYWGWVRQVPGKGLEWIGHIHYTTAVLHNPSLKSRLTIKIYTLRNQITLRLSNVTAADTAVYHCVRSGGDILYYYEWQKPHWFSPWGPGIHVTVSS VL: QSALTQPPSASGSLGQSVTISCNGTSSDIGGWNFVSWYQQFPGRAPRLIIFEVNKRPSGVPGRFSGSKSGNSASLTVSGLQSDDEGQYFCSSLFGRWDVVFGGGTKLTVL = NO

For the next question, use this binder.
Query: In plain terms: is recorded Fold IC50 increase relative to wild-type at least 0.9 fold for PGT-131 (antibody, V domains shown) VH: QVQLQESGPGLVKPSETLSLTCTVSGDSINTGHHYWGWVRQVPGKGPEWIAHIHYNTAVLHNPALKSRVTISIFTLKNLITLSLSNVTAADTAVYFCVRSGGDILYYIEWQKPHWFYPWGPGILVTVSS VL: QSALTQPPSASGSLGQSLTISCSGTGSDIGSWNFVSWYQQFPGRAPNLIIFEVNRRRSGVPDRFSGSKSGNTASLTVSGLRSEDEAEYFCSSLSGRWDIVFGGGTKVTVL ?
Response: YES

Hey, just so you know, these numbers are from patent US20200024330A1.
